- Test system: S. mansoni juvenile worms
- Experiment: Juvenile worm assay (3 week old worms), single point and dose response
- Assay type: cell-based
- Conditions used: Schistosoma mansoni, first value of cell; geometric mean, * n = 1
Exercise: state measured pEC50 for each of the compounds provided.
Give bare numbers, as −log10 of the molar value.

INSERT INTO measurements (compound, number) VALUES
  ('O=C(C1CCCCC1)N1CC(=O)N2CCc3ccccc3C2C1 (stereo not drawn)', 5.33),
  ('COc1ccc(-c2cnc3cnc(-c4cccc(OC(C)C)c4)cn23)cc1', 5.24),
  ('Cc1c(-c2cnccn2)ssc1=S', 6.10),
  ('Clc1ccc(SCc2cc(N3CCCC3)nc(-c3ccccn3)n2)cc1', 4.96),
  ('COc1ccccc1NC1=NN=C(c2cccc(N3CCCC3=O)c2)CS1', 5.29),
  ('c1ccc(-c2[nH]c3ccccc3c2C(c2ccccn2)N2CCCC2)cc1 (stereo not drawn)', 5.60);

Please report pEC50 for every entry that follows.
1. Cc1ccccc1C(=O)N1N=C(Nc2ccccc2)SC1(C)C
2. COc1ccc(-c2nnc3ccc(-c4cccc(C(C)C)c4)cn23)cc1OC
3. c1ccc(Oc2ccc(-c3cncc(-c4ccc5[nH]ccc5c4)n3)cc2)cc1

*A*
[5.24, 5.40, 5.68]
